- EXPERIMENTAL SYSTEM: SMO (Mus musculus)
- Construct: endogenous in cells; host or cells: C3H10T1/2 (ATCC #CCL-226)
- Sequence (P56726 33-793): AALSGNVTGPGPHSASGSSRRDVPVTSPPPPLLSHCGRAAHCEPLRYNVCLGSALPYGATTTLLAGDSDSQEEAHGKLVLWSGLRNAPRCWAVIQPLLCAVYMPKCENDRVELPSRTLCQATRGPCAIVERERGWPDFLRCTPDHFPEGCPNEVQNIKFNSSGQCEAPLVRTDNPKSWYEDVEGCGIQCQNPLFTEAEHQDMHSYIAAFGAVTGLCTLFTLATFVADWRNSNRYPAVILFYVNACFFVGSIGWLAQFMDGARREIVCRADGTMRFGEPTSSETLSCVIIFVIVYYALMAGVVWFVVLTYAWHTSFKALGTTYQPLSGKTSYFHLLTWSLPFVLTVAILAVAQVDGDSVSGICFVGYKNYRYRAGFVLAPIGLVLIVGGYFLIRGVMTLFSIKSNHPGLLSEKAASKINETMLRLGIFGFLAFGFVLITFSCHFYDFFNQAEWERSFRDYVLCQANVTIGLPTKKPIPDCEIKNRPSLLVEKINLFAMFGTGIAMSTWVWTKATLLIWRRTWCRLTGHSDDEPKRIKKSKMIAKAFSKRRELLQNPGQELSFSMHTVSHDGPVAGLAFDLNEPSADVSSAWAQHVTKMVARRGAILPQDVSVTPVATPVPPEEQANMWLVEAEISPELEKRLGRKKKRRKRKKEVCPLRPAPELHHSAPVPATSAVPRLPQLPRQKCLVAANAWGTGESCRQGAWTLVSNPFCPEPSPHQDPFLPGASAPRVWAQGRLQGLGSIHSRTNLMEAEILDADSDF
- METHOD DESCRIPTION: Smoothened (SMO)/Sonic Hedgehog (SHh) Transient Transcriptional Activation Assay (Gli-luciferase reporter in C3H10T1/2 cells)
- Assay type: cell-based, murine
- RECORDED CONDITIONS: C3H 10T1/2, 2 μM test compound, SHh 250 ng/ml, 20 hrs, read-out: SMO CELL % INHIBITION @ 2 μM
Structures can show the parent of a compound that is named as a salt.
REPORTED PROPERTY: inhibition at 2 µM
Provide a numeric answer, followed by its unit.

>  <COMPOUND>
O=C(N[C@H]1CCC[C@@H](c2nc3cc(C(F)(F)F)ccc3[nH]2)C1)c1ccc2c(c1)OCCO2 [Example 152, HCl]

>  <EXPERIMENTAL SYSTEM>
SMO (Mus musculus)

>  <inhibition at 2 µM>
80%

$$$$

# input Item O=C(N[C@@H]1CCC[C@H](c2nc3cc(C(F)(F)F)ccc3[nH]2)C1)c1n[nH]c2c1CCCCCC2 [Example 283, HCl] : provide inhibition at 2 µM
# output 106%

# input Specify reported inhibition at 2 µM for the compound shown: CN(C)S(=O)(=O)CC(=O)NC1CCCC(c2nc3ccccc3[nH]2)C1 (stereo not shown)
# output 71%

# input Supply reported inhibition at 2 µM belonging to this compound: O=C(N[C@H]1CCC[C@H](c2nc3ccccc3[nH]2)C1)c1cc(C2CC2)n[nH]1 [Example 246, HCl]
# output 44%

# input Output inhibition at 2 µM of O=C(Cn1nc2ccccc2n1)NC1CCCC(c2nc3ccccc3[nH]2)C1 (stereo not shown)
# output 90%

# input Answer with the recorded inhibition at 2 µM for the compound listed here: O=C(NC1CCCC(c2nc3ccc(C(F)(F)F)cc3[nH]2)C1)c1ccc2c(c1)OCCO2 (stereo not shown) [Example 84, HCl]
# output 101%

This collection of values is drawn from patent US20100029615A1.
